Numbers sourced from paper PMC11164251.

Molecular target: HsTFIIS LW domain without the C-terminus (residue 1–78) (H. sapiens, UniProt P23193 1-78)
Assay: ITC

# binder, Kd [µM]
measured = [
    ("QPSNKELFGDDSEDEG (peptide, UniProt Q8WVC0 55-70, looked up) [HsLeo1 peptide (residue 55–70) containing an LFG motif]", 57.6),
]
